targetUnderTest: ERα (wild type) (Homo sapiens (Human))
Sequence (P03372 whole entry): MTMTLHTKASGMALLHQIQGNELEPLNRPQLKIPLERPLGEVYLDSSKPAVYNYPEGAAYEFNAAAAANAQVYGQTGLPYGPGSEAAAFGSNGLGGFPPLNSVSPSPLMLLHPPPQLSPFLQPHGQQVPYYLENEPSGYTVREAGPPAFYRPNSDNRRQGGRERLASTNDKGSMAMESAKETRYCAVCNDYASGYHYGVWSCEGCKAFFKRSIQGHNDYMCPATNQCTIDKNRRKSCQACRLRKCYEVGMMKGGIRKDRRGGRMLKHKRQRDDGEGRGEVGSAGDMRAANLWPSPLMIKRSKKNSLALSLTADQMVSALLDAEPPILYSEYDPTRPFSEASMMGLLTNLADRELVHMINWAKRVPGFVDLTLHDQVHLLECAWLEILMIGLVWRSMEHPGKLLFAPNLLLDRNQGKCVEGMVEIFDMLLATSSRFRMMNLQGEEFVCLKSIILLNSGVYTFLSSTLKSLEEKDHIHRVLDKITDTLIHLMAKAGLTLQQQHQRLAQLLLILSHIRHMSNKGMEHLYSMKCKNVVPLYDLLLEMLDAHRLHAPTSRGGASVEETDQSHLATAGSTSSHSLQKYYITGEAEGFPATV
assayRemarks: ERα (wild type) competition binding assay
conditions: 3H-estradiol competition; Ki from IC50 by Cheng-Prusoff
experimentalEndpoint: Ki (nM)

Oc1ccc2c3c(cnc2c1)-c1cccc(C(F)(F)F)c1OC3c1ccc(OCCN2CC(CF)C2)cc1 (racemic) [Example 2]
2.17
Oc1ccc2c3c(cnc2c1)-c1ccc(Cl)cc1OC3c1ccc(OCCN2CC(CF)C2)cc1 (single isomer, unassigned) [Example 3A]
8.11
Oc1ccc2c3c(cnc2c1)-c1cccc(F)c1OC3c1ccc(OCCN2CC(CF)C2)cc1 (racemic) [Example 6]
4.14

[I] Oc1ccc2c3c(cnc2c1)-c1ccc(F)cc1OC3c1ccc(OCCN2CC(CF)C2)cc1 (single isomer, unassigned) [Example 5A]
[II] Oc1ccc2c3c(cnc2c1)-c1cccc(F)c1OC3c1ccc(OCCN2CC(CF)C2)cc1 (single isomer, unassigned) [Example 6A]
Which of the two gives a bigger number for Ki: I or II ? Label of pick, please.
I

[A] Oc1ccc2c3c(cnc2c1)-c1cccc(F)c1OC3c1ccc(OCCN2CC(CF)C2)cc1 (single isomer, unassigned) [Example 6B]
[B] Oc1ccc2c3c(cnc2c1)-c1cccc(Cl)c1OC3c1ccc(OCCN2CC(CF)C2)cc1 (racemic) [Example 4]
Which value of Ki is smaller, the one for A or the one for B ? // respond with label for picked entry
B

[1] Oc1ccc2c3c(cnc2c1)-c1cccc(Cl)c1OC3c1ccc(OCCN2CC(CF)C2)cc1 (single isomer, unassigned) [Example 4A]
[2] Cc1cccc2c1OC(c1ccc(OCCN3CC(CF)C3)cc1)c1c-2cnc2cc(O)ccc12 (racemic) [Example 8]
[3] Cc1cccc2c1OC(c1ccc(OCCN3CC(CF)C3)cc1)c1c-2cnc2cc(O)ccc12 (single isomer, unassigned) [Example 8A]
[4] Oc1ccc2c3c(cnc2c1)-c1ccc(F)cc1OC3c1ccc(OCCN2CC(CF)C2)cc1 (single isomer, unassigned) [Example 5B]
[5] Oc1ccc2c3c(cnc2c1)-c1cccc(C(F)(F)F)c1OC3c1ccc(OCCN2CC(CF)C2)cc1 (single isomer, unassigned) [Example 2B]
Arrange these 5 molecules in increasing order of Ki. Please list each label once, in the requested order.
4, 2, 3, 1, 5
(4: 1.3 nM, 2: 3.2 nM, 3: 9.33 nM, 1: 16.8 nM, 5: 60.4 nM)

[I] Cc1ccc2c(c1)OC(c1ccc(OCCN3CC(CF)C3)cc1)c1c-2cnc2cc(O)ccc12 (racemic)
[II] Oc1ccc2c3c(cnc2c1)-c1cccc(Cl)c1OC3c1ccc(OCCN2CC(CF)C2)cc1 (single isomer, unassigned) [Example 4B]
[III] Oc1ccc2c3c(cnc2c1)-c1cccc(C(F)(F)F)c1OC3c1ccc(OCCN2CC(CF)C2)cc1 (single isomer, unassigned) [Example 2A]
[IV] Oc1ccc2c3c(cnc2c1)-c1ccc(F)cc1OC3c1ccc(OCCN2CC(CF)C2)cc1 (racemic) [Example 5]
Please produce an ascending ranking of these molecules based on Ki. Output spec: a listing of the labels in the requested order.
II, III, I, IV
